# Assayed target: Proteinase-activated receptor 2 (Homo sapiens, UniProt P55085)
# Sequence (P55085 whole entry): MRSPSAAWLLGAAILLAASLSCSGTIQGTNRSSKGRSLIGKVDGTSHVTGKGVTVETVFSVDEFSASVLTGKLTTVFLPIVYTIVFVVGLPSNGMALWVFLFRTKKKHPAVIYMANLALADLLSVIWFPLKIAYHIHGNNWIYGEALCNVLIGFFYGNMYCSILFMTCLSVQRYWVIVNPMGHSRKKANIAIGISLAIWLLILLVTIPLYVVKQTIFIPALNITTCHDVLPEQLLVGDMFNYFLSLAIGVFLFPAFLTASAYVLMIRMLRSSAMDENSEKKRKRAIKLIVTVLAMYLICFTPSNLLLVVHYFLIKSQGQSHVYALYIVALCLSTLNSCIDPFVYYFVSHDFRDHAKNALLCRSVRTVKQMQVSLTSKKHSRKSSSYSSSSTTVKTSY
# Experiment notes: Agonist activity at PAR2 expressed in human HT29 cells assessed as intracellular calcium release
Square brackets hold non-standard residues; d marks the D form. Peptide text beside a SMILES is read from it. * marks the point of attachment. Phe(3,4-Cl2) = N[C@@H](Cc1ccc(Cl)c(Cl)c1)C(=O)O; Phe(4-I) = N[C@@H](Cc1ccc(I)cc1)C(=O)O; 1Nal = N[C@@H](Cc1cccc2ccccc12)C(=O)O; Oxazole4CO(2-Me) = Cc1nc(C(=O)*)co1
Test readout: pEC50
Note on pEC50: it is the negative log10 of concentration, concentration in mol/L.

Consider the reported pEC50 for these compounds:
{"Compound": "CC[C@H](C)[C@H](NC(=O)[C@H](Cc1ccc(Cl)c(Cl)c1)NC(=O)[C@H](CCCN=C(N)N)NC(=O)CNC(=O)[C@@H](NC(=O)[C@H](CC(C)C)NC(=O)[C@@H](N)CO)[C@@H](C)CC)C(N)=O (H-SLIGR[Phe(3,4-Cl2)]I-NH2)", "pEC50": 6.52}
{"Compound": "CC[C@H](C)[C@H](NC(=O)[C@H](Cc1ccc(O)cc1)NC(=O)[C@H](CCCN=C(N)N)NC(=O)CNC(=O)[C@@H](NC(=O)[C@H](CC(C)C)NC(=O)[C@@H](N)CO)[C@@H](C)CC)C(N)=O (H-SLIGRYI-NH2)", "pEC50": 6.40}
{"Compound": "CC[C@H](C)[C@H](NC(=O)[C@H](CC(C)C)NC(=O)c1coc(C)n1)C(=O)NCC(=O)N[C@@H](CCCNC(=N)N)C(=O)N[C@@H](Cc1ccc(I)cc1)C(N)=O ({Oxazole4CO(2-Me)}-LIGR[Phe(4-I)]-NH2)", "pEC50": 6.49}
{"Compound": "CC[C@H](C)[C@H](NC(=O)[C@H](CC(C)C)NC(=O)[C@@H](N)CO)C(=O)NCC(=O)N[C@@H](CCCNC(=N)N)C(=O)N[C@@H](CC(C)C)C(N)=O (H-SLIGRL-NH2)", "pEC50": 5.38}
{"Compound": "CC[C@H](C)[C@H](NC(=O)[C@H](CC(C)C)NC(=O)[C@@H](N)CO)C(=O)NCC(=O)N[C@@H](CCCNC(=N)N)C(=O)N[C@@H](CC(C)C)C(=O)N[C@@H](Cc1ccc(O)cc1)C(N)=O (H-SLIGRLY-NH2)", "pEC50": 5.92}

Per the reported Proteinase-activated receptor 2 (Homo sapiens, UniProt P55085) data, CC[C@H](C)[C@H](NC(=O)[C@H](CC(C)C)NC(=O)[C@H](CCCN=C(N)N)NC(=O)CNC(=O)[C@@H](NC(=O)[C@H](CC(C)C)NC(=O)[C@@H](N)CO)[C@@H](C)CC)C(N)=O (H-SLIGRLI-NH2) has pEC50 of 6.15

Value (pEC50, Proteinase-activated receptor 2 (Homo sapiens, UniProt P55085)) for record CC[C@H](C)[C@H](NC(=O)[C@H](CC(C)C)NC(=O)[C@@H](N)CO)C(=O)NCC(=O)N[C@@H](CCCNC(=N)N)C(=O)N[C@@H](CC(C)C)C(=O)N[C@@H](Cc1cccc2ccccc12)C(N)=O (H-SLIGRL[1Nal]-NH2) = 5.96

====

# Assayed target: Proteinase-activated receptor 2 (Homo sapiens, UniProt P55085)
# Experiment notes: Agonist activity at PAR2 expressed in human HT29 cells assessed as intracellular calcium release
Square brackets hold non-standard residues; d marks the D form. Peptide text beside a SMILES is read from it. * marks the point of attachment. Tyr(3-NO2) = N[C@@H](Cc1ccc(O)c([N+](=O)[O-])c1)C(=O)O; Phe(4-NO2) = N[C@@H](Cc1ccc([N+](=O)[O-])cc1)C(=O)O; Phe(4-N3) = [N-]=[N+]=Nc1ccc(C[C@H](N)C(=O)O)cc1; Phe(3,4-(OMe)2) = COc1ccc(C[C@H](N)C(=O)O)cc1OC; Phe(4-COOH) = N[C@@H](Cc1ccc(C(=O)O)cc1)C(=O)O; Phe(4-tBu) = CC(C)(C)c1ccc(C[C@H](N)C(=O)O)cc1; Phe(3-CN) = N#Cc1cccc(C[C@H](N)C(=O)O)c1; Phe(4-Cl) = N[C@@H](Cc1ccc(Cl)cc1)C(=O)O; hTyr = N[C@@H](CCc1ccc(O)cc1)C(=O)O; hPhe = N[C@@H](CCc1ccccc1)C(=O)O; 3Pal = N[C@@H](Cc1cccnc1)C(=O)O; 4Pal = N[C@@H](Cc1ccncc1)C(=O)O; Nle = CCCC[C@H](N)C(=O)O; 2Furoyl = O=C(c1ccco1)*
# note: boundary value 1000 nM maps to N; EC50 below it maps to Y

{"Compound": "CC[C@H](C)[C@H](NC(=O)[C@H](Cc1ccc(C(=O)O)cc1)NC(=O)[C@H](CCCNC(=N)N)NC(=O)CNC(=O)[C@@H](NC(=O)[C@H](CC(C)C)NC(=O)[C@@H](N)CO)[C@@H](C)CC)C(N)=O (H-SLIGR[Phe(4-COOH)]I-NH2)", "Label": "N"}
{"Compound": "CCCC[C@H](NC(=O)[C@H](CC(C)C)NC(=O)[C@H](CCCNC(=N)N)NC(=O)CNC(=O)[C@@H](NC(=O)[C@H](CC(C)C)NC(=O)[C@@H](N)CO)[C@@H](C)CC)C(N)=O (H-SLIGRL[Nle]-NH2)", "Label": "N"}
{"Compound": "CC[C@H](C)[C@H](NC(=O)[C@H](CC(C)C)NC(=O)c1ccco1)C(=O)NCC(=O)N[C@@H](CCCNC(=N)N)C(=O)N[C@@H](Cc1ccc([N+](=O)[O-])cc1)C(N)=O (2Furoyl-LIGR[Phe(4-NO2)]-NH2)", "Label": "Y"}
{"Compound": "CC[C@H](C)[C@H](NC(=O)[C@H](Cc1ccc(Cl)cc1)NC(=O)[C@H](CCCNC(=N)N)NC(=O)CNC(=O)[C@@H](NC(=O)[C@H](CC(C)C)NC(=O)[C@@H](N)CO)[C@@H](C)CC)C(N)=O (H-SLIGR[Phe(4-Cl)]I-NH2)", "Label": "Y"}
{"Compound": "CC[C@H](C)[C@H](NC(=O)[C@H](Cc1ccc(OC)c(OC)c1)NC(=O)[C@H](CCCNC(=N)N)NC(=O)CNC(=O)[C@@H](NC(=O)[C@H](CC(C)C)NC(=O)[C@@H](N)CO)[C@@H](C)CC)C(N)=O (H-SLIGR[Phe(3,4-(OMe)2)]I-NH2)", "Label": "N"}

EC50 strictly < 1000 nM for this compound? CC[C@H](C)[C@H](NC(=O)[C@H](Cc1cccnc1)NC(=O)[C@H](CCCNC(=N)N)NC(=O)CNC(=O)[C@@H](NC(=O)[C@H](CC(C)C)NC(=O)[C@@H](N)CO)[C@@H](C)CC)C(N)=O (H-SLIGR[3Pal]I-NH2)
N

Hello, is EC50 of the following compound strictly smaller than 1000 nM? CC[C@H](C)[C@H](NC(=O)[C@H](CC(C)C)NC(=O)[C@@H](N)CO)C(=O)NCC(=O)N[C@@H](CCCNC(=N)N)C(=O)N[C@@H](CC(C)C)C(=O)N[C@@H](CCc1ccc(O)cc1)C(N)=O (H-SLIGRL[hTyr]-NH2)
Y

Quick check: EC50 of CC[C@H](C)[C@H](NC(=O)[C@H](CC(C)C)NC(=O)[C@@H](N)CO)C(=O)NCC(=O)N[C@@H](CCCNC(=N)N)C(=O)N[C@@H](Cc1ccc([N+](=O)[O-])cc1)C(N)=O (H-SLIGR[Phe(4-NO2)]-NH2) under 1000 nM?
Y

Strictly below 1000 nM in EC50? CC[C@H](C)[C@H](NC(=O)[C@H](CCc1ccc(O)cc1)NC(=O)[C@H](CCCNC(=N)N)NC(=O)CNC(=O)[C@@H](NC(=O)[C@H](CC(C)C)NC(=O)[C@@H](N)CO)[C@@H](C)CC)C(N)=O (H-SLIGR[hTyr]I-NH2)
N

Lab note: EC50 threshold 1000 nM. Does this compound come in strictly under it? CC[C@H](C)[C@H](NC(=O)[C@H](Cc1ccc(N=[N+]=[N-])cc1)NC(=O)[C@H](CCCNC(=N)N)NC(=O)CNC(=O)[C@@H](NC(=O)[C@H](CC(C)C)NC(=O)[C@@H](N)CO)[C@@H](C)CC)C(N)=O (H-SLIGR[Phe(4-N3)]I-NH2)
N

Confirm or reject: EC50 of CC[C@H](C)[C@H](NC(=O)[C@H](CC(C)C)NC(=O)[C@@H](N)CO)C(=O)NCC(=O)N[C@@H](CCCNC(=N)N)C(=O)N[C@@H](CC(C)C)C(=O)N[C@@H](CC(C)C)C(N)=O (H-SLIGRLL-NH2) lies strictly below 1000 nM
N

Please determine if CC[C@H](C)[C@H](NC(=O)[C@H](Cc1cccc(C#N)c1)NC(=O)[C@H](CCCNC(=N)N)NC(=O)CNC(=O)[C@@H](NC(=O)[C@H](CC(C)C)NC(=O)[C@@H](N)CO)[C@@H](C)CC)C(N)=O (H-SLIGR[Phe(3-CN)]I-NH2) is below 1000 nM in terms of EC50.
N

Take the compound CC[C@H](C)[C@H](NC(=O)[C@H](CCc1ccccc1)NC(=O)[C@H](CCCNC(=N)N)NC(=O)CNC(=O)[C@@H](NC(=O)[C@H](CC(C)C)NC(=O)[C@@H](N)CO)[C@@H](C)CC)C(N)=O (H-SLIGR[hPhe]I-NH2) and say whether its EC50 is less than 1000 nM.
N

For this compound, is EC50 lower than 1000 nM? CC[C@H](C)[C@H](NC(=O)[C@H](Cc1ccncc1)NC(=O)[C@H](CCCNC(=N)N)NC(=O)CNC(=O)[C@@H](NC(=O)[C@H](CC(C)C)NC(=O)[C@@H](N)CO)[C@@H](C)CC)C(N)=O (H-SLIGR[4Pal]I-NH2)
N

Strictly below 1000 nM in EC50? CC[C@H](C)[C@H](NC(=O)[C@H](Cc1ccc(O)c([N+](=O)[O-])c1)NC(=O)[C@H](CCCNC(=N)N)NC(=O)CNC(=O)[C@@H](NC(=O)[C@H](CC(C)C)NC(=O)[C@@H](N)CO)[C@@H](C)CC)C(N)=O (H-SLIGR[Tyr(3-NO2)]I-NH2)
N

State whether 1000 nM exceeds EC50 recorded for CC[C@H](C)[C@H](NC(=O)[C@H](Cc1ccc(C(C)(C)C)cc1)NC(=O)[C@H](CCCNC(=N)N)NC(=O)CNC(=O)[C@@H](NC(=O)[C@H](CC(C)C)NC(=O)[C@@H](N)CO)[C@@H](C)CC)C(N)=O (H-SLIGR[Phe(4-tBu)]I-NH2) .
Y
